Source listed as PubChem BioAssay (NCI).

PROTOCOL DETAILS: NCI Yeast Anticancer Drug Screen. Data for the cln2 rad14 strain (AID 165);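 note: 0% = growth equal to vehicle treated cultures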
MEASUREMENT PARAMETERS: S. cerevisiae cln2 rad14 strain, at 50.0 µM, stronger effect = higher value
About 79,000 compounds went through this panel and 15% of them were active in at least one assay; those are over-represented in the sample as a whole.
MEASURE: growth inhibition (%)
Hi! Could you send only the number? It should be in %, unit omitted.

Field: example entries. Status: answers known.
{"MOLECULE": "C[C@]12CC[C@H](O)C[C@H]1CC[C@@H]1[C@@H]2CC[C@]2(C)[C@@H](C3=CC(=O)OC3)[C@@H](O)C[C@]12O", "UNIT SYMBOL": "%", "growth inhibition": -16.8}
{"MOLECULE": "NC(=O)c1ccc(C(=O)Nc2ccc([As](=O)(O)O)cc2)cc1", "UNIT SYMBOL": "%", "growth inhibition": 49.4}
{"MOLECULE": "COc1ccc2c(c1)C(=O)C(N)C2 (stereo unspecified)", "UNIT SYMBOL": "%", "growth inhibition": -21.6}
{"MOLECULE": "ClCCN(CCCl)c1ccc(N=Cc2ccccc2)cc1", "UNIT SYMBOL": "%", "growth inhibition": 4.3}
{"MOLECULE": "N#CCCCCCBr", "UNIT SYMBOL": "%", "growth inhibition": 10.8}

input: Output growth inhibition of S=C=Nc1ccccn1
output: 7.8
